- System: respiratory syncytial virus A2 (ATCC VR-1540)
- assay.comment: Cytopathic effect assay with RSV A2 in MA-104 cells
- Assay type: cell-based
- condition.details: human respiratory syncytial virus, MA104, CPE inhibition, neutral red
pEC50: −log10 of the molar value.
Recorded pEC50, one value per entry.

Example entries begin here.
compound	reading
CN(C)c1nc(N)nc2c1ncn2[C@@H]1O[C@@](CO)(CCl)[C@@H](O)[C@H]1F	< 3.65
CN(C)c1nc(N)nc2c1ncn2[C@@H]1O[C@](C)(CO)[C@@H](O)[C@H]1F	< 3.51
CC(C)OC(=O)[C@H](C)NP(=O)(OC[C@@]1(CCl)O[C@@H](n2ccc(N)nc2=O)[C@H](F)C1O)Oc1ccccc1 (stereo in doubt)	< 3.75
CC[C@]1(COP(=O)(N[C@@H](C)C(=O)OC(C)C)Oc2ccccc2)O[C@@H](n2cnc3c(N(C)C)nc(N)nc32)[C@H](F)[C@@H]1O (stereo partly drawn)	< 3.79
CC[C@]1(CO)O[C@@H](n2cnc3c(N(C)C)nc(N)nc32)[C@@H](F)[C@@H]1O	< 3.53
CC[C@]1(CO)O[C@@H](n2cnc3c(N(C)C)nc(N)nc32)[C@H](F)[C@@H]1O	< 3.53

Recorded pEC50 for CC(C)C(=O)Nc1nc(N(C)C)c2ncn([C@@H]3O[C@@](CO)(CCl)[C@@H](O)[C@H]3F)c2n1 on respiratory syncytial virus A2 (ATCC VR-1540) was < 3.63

Observed pEC50, respiratory syncytial virus A2 (ATCC VR-1540), Nc1ccn([C@@H]2O[C@@](CO)(CCl)C(O)[C@H]2F)c(=O)n1 (stereo in doubt) : 5.02

Note to self: pEC50 of CC(C)OC(=O)[C@H](C)NP(=O)(OC[C@@]1(CCl)O[C@@H](n2cnc3c(N(C)C)nc(N)nc32)[C@H](F)[C@@H]1O)Oc1ccccc1 (stereo partly drawn) with respiratory syncytial virus A2 (ATCC VR-1540) was < 3.80

Just for reference, patent US10202412B2 is where these values come from.
